- Assay comment: Volume of distribution at steady state in Sprague-Dawley rat at 2 mg/kg, iv
- Format: ADME, organism-based
- Set-up: dose 2 mg/kg, route intravenous
- Measurement conditions: in vivo, read-out: Vdss
Measured parameter: Vd (L/kg)

Molecule: O=S(=O)(c1cccs1)N1CCN(c2ccc(C(O)(C(F)(F)F)C(F)(F)F)cc2)CC1
Value units: L/kg
Reported value: 6.81

----------
- Assay comment: Clearance in Sprague-Dawley rat at 2 mg/kg, iv
- Assay type: ADME, organism-based
- Design: dose 2 mg/kg, route intravenous
- Measurement conditions: in vivo

Molecule: O=S(=O)(c1cccs1)N1CCN(c2ccc(C(O)(C(F)(F)F)C(F)(F)F)cc2)CC1
clearance: 44 mL/min/kg

----------
- Assay comment: Intrinsic clearance in Sprague-Dawley rat liver microsomes at 1 uM after 30 mins in presence of NADPH
- Assay type: ADME
- Measurement conditions: read-out: CLH

Molecule: C[C@H]1COCCN1C[C@H]1CN(S(=O)(=O)c2cccs2)CCN1c1ccc([C@@](C)(O)C(F)(F)F)cc1
Value units: µL/min/mg
microsomal CLint at 1 µM: 608

----------
# maps each entry to its EC50
- Target or system: Glucokinase regulatory protein (Rattus norvegicus, UniProt Q07071)
- Sequence (Q07071 whole entry): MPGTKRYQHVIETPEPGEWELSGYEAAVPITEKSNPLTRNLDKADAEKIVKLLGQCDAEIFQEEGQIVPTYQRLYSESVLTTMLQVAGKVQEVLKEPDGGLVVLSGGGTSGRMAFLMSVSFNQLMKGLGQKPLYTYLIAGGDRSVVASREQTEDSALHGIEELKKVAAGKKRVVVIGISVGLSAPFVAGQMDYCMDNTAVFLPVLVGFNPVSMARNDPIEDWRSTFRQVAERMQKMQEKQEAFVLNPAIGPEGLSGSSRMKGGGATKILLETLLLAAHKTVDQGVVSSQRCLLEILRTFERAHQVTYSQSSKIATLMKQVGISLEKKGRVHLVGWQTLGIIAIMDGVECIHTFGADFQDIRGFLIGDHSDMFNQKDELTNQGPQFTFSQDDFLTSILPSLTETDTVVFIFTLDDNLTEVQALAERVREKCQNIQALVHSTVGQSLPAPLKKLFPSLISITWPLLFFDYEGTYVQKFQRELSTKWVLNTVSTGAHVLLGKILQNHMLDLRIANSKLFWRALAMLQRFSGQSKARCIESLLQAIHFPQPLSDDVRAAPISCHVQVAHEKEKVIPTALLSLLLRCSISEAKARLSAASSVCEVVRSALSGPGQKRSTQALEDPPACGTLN
- Assay comment: Inhibition of GKRP-GK interaction in rat primary hepatocytes assessed as translocation of GK from nucleus to cytoplasm preincubated for 20 mins followed by glucose addition measured after 40 mins by fluorescence assay
Measured parameter: EC50 (nM)

Molecule: C[C@H]1COCCN1C[C@H]1CN(S(=O)(=O)c2cccs2)CCN1c1ccc(C(O)(C(F)(F)F)C(F)(F)F)cc1
Measured parameter: EC50
Reported value: 1810
//
Molecule: C[C@H]1COCCN1C[C@H]1CN(S(=O)(=O)c2cccs2)CCN1c1ccc([C@](C)(O)C(F)(F)F)cc1
Measured parameter: EC50
Reported value: 220
//
Molecule: C[C@@](O)(c1ccc(N2CCN(S(=O)(=O)c3cccs3)C[C@@H]2CC2CCOCC2)cc1)C(F)(F)F
Measured parameter: EC50
Reported value: 890
//
Molecule: C[C@H]1COCCN1C[C@H]1CN(S(=O)(=O)c2cccs2)CCN1c1ccc([C@@](C)(O)C(F)(F)F)cc1
Measured parameter: EC50
Reported value: 82
//
Molecule: C[C@](O)(c1ccc(N2CCN(S(=O)(=O)c3cccs3)C[C@@H]2CC2CCOCC2)cc1)C(F)(F)F
Measured parameter: EC50
Reported value: 4760
//
Molecule: O=S(=O)(c1cccs1)N1CCN(c2ccc(C(O)(C(F)(F)F)C(F)(F)F)cc2)[C@@H](CC2CCOCC2)C1
Measured parameter: EC50
Reported value: 5470
//
Molecule: O=S(=O)(c1cccs1)N1CCN(c2ccc(C(O)(C(F)(F)F)C(F)(F)F)cc2)[C@@H](CN2CCOCC2)C1
Measured parameter: EC50
Reported value: 3990

----------
- Assay comment: Cmax in Sprague-Dawley rat at 10 mg/kg, po
- Format: ADME, organism-based
- Set-up: dose 10 mg/kg, route oral
- Measurement conditions: in vivo
Measured parameter: Cmax (nM)

Molecule: C[C@H]1COCCN1C[C@H]1CN(S(=O)(=O)c2cccs2)CCN1c1ccc([C@@](C)(O)C(F)(F)F)cc1
Reported value: 110
--
Molecule: O=S(=O)(c1cccs1)N1CCN(c2ccc(C(O)(C(F)(F)F)C(F)(F)F)cc2)CC1
Reported value: 350
